Parameter PBM E-score: see the listing below.
MEASURED ON: Stp1 (UniProt B3LFK1)
Sequence: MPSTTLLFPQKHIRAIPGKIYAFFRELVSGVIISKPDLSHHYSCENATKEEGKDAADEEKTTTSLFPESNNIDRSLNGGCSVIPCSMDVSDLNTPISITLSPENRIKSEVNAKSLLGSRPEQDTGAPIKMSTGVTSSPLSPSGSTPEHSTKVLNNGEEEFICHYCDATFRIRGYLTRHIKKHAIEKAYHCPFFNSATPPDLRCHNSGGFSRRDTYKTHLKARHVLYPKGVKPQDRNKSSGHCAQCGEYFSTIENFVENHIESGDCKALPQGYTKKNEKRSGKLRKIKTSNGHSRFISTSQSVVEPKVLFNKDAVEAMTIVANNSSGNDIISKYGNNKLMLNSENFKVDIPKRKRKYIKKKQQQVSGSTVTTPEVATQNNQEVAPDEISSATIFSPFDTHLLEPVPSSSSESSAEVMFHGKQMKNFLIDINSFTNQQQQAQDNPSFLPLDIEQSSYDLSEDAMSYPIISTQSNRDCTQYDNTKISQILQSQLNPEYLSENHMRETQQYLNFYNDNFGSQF
EXPERIMENT DESCRIPTION: PBM E-score (8-mer binding enrichment) (E-score (-0.5 to 0.5)); higher = stronger / more preferred TF binding
EXPERIMENTAL CONTEXT: protein concentration: 200 nM; construct: GST-full length
Whole data set: some 33,000 sequences, median “E-score (-0.5 to 0.5)” near -0.016, cut for the highest 2% near 0.32. This is one part of a sample in which the highest values are shown more often than they occur.
ENDPOINT LABEL: PBM E-score

| MONOMER SEQUENCE | RESULT NUMBER |
| --- | --- |
| CGGCACCA | 0.462 |
| AGCCACTC | 0.0834 |
| ATTTCGCA | 0.111 |
| GGCACCAC | 0.324 |
| ATTTCGCC | 0.336 |
| AAAAGCTC | -0.131 |
| AGCGAGGC | 0.197 |
| CACGGCGG | 0.417 |
| AGGCACCA | 0.366 |
| CACGAGGC | 0.415 |
| GGGGCAAA | 0.0199 |
| AGCACCGA | 0.0493 |
| AGGCGTTA | 0.236 |
| GTCGGCGA | -0.0125 |
| CAGCGTTC | 0.0494 |
| AACGGGGG | -0.316 |
| GGGCACCA | 0.056 |
| AGTTGGGG | -0.209 |
| AGGCACGA | 0.267 |
| CAAAGACG | 0.0347 |
| AGCACCAC | -0.134 |
| AGGCGTTC | 0.0316 |
| GGCACCGA | 0.356 |
| GTAAGAGA | -0.0111 |
| CGCACCAA | 0.213 |
| GAGACGTA | -0.074 |
| AGGAGAAT | -0.17 |
| CACGAGGG | -0.253 |
| CGCGAGGA | -0.0281 |
| ATATCGCG | 0.127 |
| CGCACCGA | 0.0478 |
| GCGTGAGC | 0.193 |
| AACGAGAA | 0.00842 |
| ACGGATAC | 0.249 |
| ACTGTCCT | -0.097 |
| ATATCGCC | 0.322 |
| CACGAGGA | 0.102 |
| ACCGGCGA | 0.134 |
| ATGGTTGC | -0.177 |
| AGCAACCC | -0.306 |
| ACCGAGGC | -0.121 |
| AACGGGGA | -0.0385 |
| GGCACCAA | 0.393 |
| TGGCACCA | 0.176 |
| CGGCGTTA | 0.454 |
| CACGGGGG | -0.208 |
